- Tested on: Vero E6 infected with SARS-CoV-2
- Test: SARS-CoV-2 infection rate relative to infected DMSO; higher = more infection, active = 60 or less
- Condition label: 24 h
Property label: SARS-CoV-2 infection rate (%)
State the answer as a number, implicitly in %.

For orientation, consider the following solved cases.
CCN(CC)CCN[C@@H](C(=O)OCCC(C)C)c1ccccc1 [camylofine-chlorhydrate] (10 µM); 98
CN(C)CCC=C1c2ccccc2CCc2ccccc21 [amitriptyline] (10 µM); 100
CN(C)[C@@H]1C(O)=C(C(N)=O)C(=O)[C@@]2(O)C(O)=C3C(=O)c4c(O)cccc4[C@@](C)(O)[C@H]3[C@H](O)[C@@H]12 [oxytetracycline] (10 µM); 106
CCn1cc(-c2ccnc3[nH]c(-c4cccc(CN(C)C)c4)cc23)c(-c2ccc(NC(=O)N(C)C)cc2)n1 (0.833333 µM); 106

Ask: Fill in SARS-CoV-2 infection rate for O=C(NCCCN1CCC2(CC1)OCc1ccccc12)[C@H]1CCCN1Cc1ccccc1 (10 µM) tested with Vero E6 infected with SARS-CoV-2.
Result: 63.5

Ask: Fill in SARS-CoV-2 infection rate for NC(=O)OCCCc1ccccc1 [phenprobamate] (10 µM) tested with Vero E6 infected with SARS-CoV-2.
Result: 102

Ask: Fill in SARS-CoV-2 infection rate for CCOC(=O)[C@H](CCc1ccccc1)N[C@@H](C)C(=O)N1Cc2cc(OC)c(OC)cc2C[C@H]1C(=O)O [moexipril] (10 µM) tested with Vero E6 infected with SARS-CoV-2.
Result: 90

Ask: Fill in SARS-CoV-2 infection rate for CN[C@@H]1[C@@H](O)[C@@H](O[C@@H]2[C@@H](O)[C@H](O[C@H]3O[C@H](CN)[C@@H](O)[C@H](O)[C@H]3O)[C@@H](N)C[C@H]2NC(=O)[C@@H](O)CN)OC[C@]1(C)O [isepamicin] (10 µM) tested with Vero E6 infected with SARS-CoV-2.
Result: 109

Ask: Fill in SARS-CoV-2 infection rate for Cc1ncc([N+](=O)[O-])n1CC(O)CCl (stereo not given) [ornidazole] (10 µM) tested with Vero E6 infected with SARS-CoV-2.
Result: 107

Ask: Fill in SARS-CoV-2 infection rate for CC(=O)NNC(=O)N1Cc2ccccc2Oc2ccc(Cl)cc21 (10 µM) tested with Vero E6 infected with SARS-CoV-2.
Result: 97.5

Ask: Fill in SARS-CoV-2 infection rate for CC(C)Cc1ccc([C@@H](C)C(=O)NS(C)(=O)=O)cc1 [reparixin] (10 µM) tested with Vero E6 infected with SARS-CoV-2.
Result: 100

Ask: Fill in SARS-CoV-2 infection rate for O=C(NCCN1CCCCC1)c1ccc(I)cc1 [N-[2-(piperidinylamino)ethyl]-4-iodobenzamide] (10 µM) tested with Vero E6 infected with SARS-CoV-2.
Result: 91.5

Ask: Fill in SARS-CoV-2 infection rate for O=C1Cc2cc(CCN3CCN(c4nsc5ccccc45)CC3)c(Cl)cc2N1 [ziprasidone] (10 µM) tested with Vero E6 infected with SARS-CoV-2.
Result: 100

Ask: Fill in SARS-CoV-2 infection rate for CSc1ccc(C(=O)/C=C/c2cc(C)c(OC(C)(C)C(=O)O)c(C)c2)cc1 [elafibranor] (10 µM) tested with Vero E6 infected with SARS-CoV-2.
Result: 110

Ask: Fill in SARS-CoV-2 infection rate for COc1cc(OC)cc(N(CCNC(C)C)c2ccc3ncc(-c4cnn(C)c4)nc3c2)c1 [erdafitinib] (0.833333 µM) tested with Vero E6 infected with SARS-CoV-2.
Result: 108

----------
- System: Vero E6 infected with SARS-CoV-2
- Test: inhibition of SARS-CoV-2 cytopathic effect; higher = more antiviral protection, active = above 15
- Condition label: 1 nM; 48 h
Property label: inhibition of SARS-CoV-2 cytopathic effect (%)
State the answer as a number, implicitly in %.

For orientation, consider the following solved cases.
O=C(O)c1ccccc1NCCc1ccccc1 [tromaril]; -2.04
CC(C)[C@H](NS(=O)(=O)c1ccc(-c2ccc(Br)cc2)cc1)C(=O)O; 0.82
CC1(C)OC(=O)NC1=O [dimethadione]; -1.41

Ask: Tell us which inhibition of SARS-CoV-2 cytopathic effect value is on record for O=c1ncccn1[C@@H]1O[C@H](CO)[C@@H](O)[C@H]1O [zebularine]
Result: -2.02

Ask: Tell us which inhibition of SARS-CoV-2 cytopathic effect value is on record for C[C@@H](NCc1cc(Br)cc2nc(O)c(O)nc12)P(=O)(O)O
Result: -0.47

Ask: Tell us which inhibition of SARS-CoV-2 cytopathic effect value is on record for CC(C)(C)c1ccc2cc(C#N)c(C#N)cc2c1
Result: 0.02

Ask: Tell us which inhibition of SARS-CoV-2 cytopathic effect value is on record for O=C(CCCN1CCC(n2c(=O)[nH]c3ccccc32)CC1)c1ccc(F)cc1 [benperidol]
Result: 0.17

Ask: Tell us which inhibition of SARS-CoV-2 cytopathic effect value is on record for C[C@@H]1CC[C@@]2(NC1)O[C@H]1C[C@H]3[C@@H]4CC=C5C[C@@H](O[C@@H]6O[C@H](CO)[C@@H](O[C@@H]7O[C@@H](C)[C@H](O)[C@@H](O)[C@H]7O)[C@H](O)[C@H]6O[C@@H]6O[C@@H](C)[C@H](O)[C@@H](O)[C@H]6O)CC[C@]5(C)[C@H]4CC[C@]3(C)[C@H]1[C@@H]2C [solamargine]
Result: -1.13

Ask: Tell us which inhibition of SARS-CoV-2 cytopathic effect value is on record for COc1cc(NC(=O)c2ccccn2)ccc1Cl
Result: -0.99

Ask: Tell us which inhibition of SARS-CoV-2 cytopathic effect value is on record for CC#CCC(C)[C@H](O)/C=C/[C@@H]1[C@H]2C/C(=C/CCCC(=O)O)C[C@H]2C[C@H]1O (stereo partly drawn) [iloprost]
Result: -0.22

Ask: Tell us which inhibition of SARS-CoV-2 cytopathic effect value is on record for O=C(Nc1cc(C(F)(F)F)cc(C(F)(F)F)c1)c1cnc(Cl)nc1C(F)(F)F
Result: 0.53

Ask: Tell us which inhibition of SARS-CoV-2 cytopathic effect value is on record for NNc1nncc2ccccc12 [hydralazine]
Result: 0.09

----------
- Test system: Vero E6 infected with SARS-CoV-2
- Test: morphology score (similarity to uninfected cells); higher = more like uninfected cells
- Condition label: 24 h
// label = 1.0 if morphology score is not less than 0.04, otherwise 0.0

Worked examples, 5 compounds total:
O=C(O)CCC(=O)O [succinic-acid] (10 µM); 0.0
CN(C)CC[C@H](CSc1ccccc1)Nc1ccc(S(=O)(=O)NC(=O)c2ccc(N3CCN(Cc4ccccc4-c4ccc(Cl)cc4)CC3)cc2)cc1[N+](=O)[O-] (10 µM); 1.0
CC(=O)O[C@H]1C[C@H](O[C@H]2[C@@H](O)C[C@H](O[C@H]3[C@@H](O)C[C@H](O[C@H]4CC[C@@]5(C)[C@H](CC[C@@H]6[C@@H]5C[C@@H](O)[C@]5(C)[C@@H](C7=CC(=O)OC7)CC[C@]65O)C4)O[C@@H]3C)O[C@@H]2C)O[C@H](C)[C@H]1O[C@@H]1O[C@H](CO)[C@@H](O)[C@H](O)[C@H]1O [lanatoside-C] (0.833333 µM); 0.0
C[C@@H](O)[C@H](N)C(=O)N1CCC[C@H]1C(=O)N1CCC[C@H]1C(=O)N[C@H](C(N)=O)[C@@H](C)O [rapastinel] (10 µM); 0.0
CN(C)c1nc(N)c(C(=O)Nc2cccnc2)nc1Cl (10 µM); 1.0

Now for a further compound.
Ask: # bool: morphology score of CCN(CC)c1ccc(/C=N/NC(=O)c2ccc(O)cc2)cc1 (10 µM) >= 0.04
Result: 0.0

----------
- Test system: Vero E6 infected with SARS-CoV-2
- Test: morphology score (similarity to uninfected cells); higher = more like uninfected cells
- Condition label: 24 h
// label = label 1 if morphology score is not less than 0.008, otherwise label 0

Worked examples, 4 compounds total:
N#Cc1ccc(-c2ccc(S(=O)(=O)Nc3cccc(N)n3)cc2)cc1 (10 µM); label 0
O=c1oc2cc(O)ccc2s1 [tioxolone] (10 µM); label 1
CCN(CC)C(=O)N[C@H]1C=C2c3cccc4[nH]cc(c34)C[C@H]2N(C)C1 [lisuride] (10 µM); label 0
O=C1C=CC(=O)C2=C1C1c3ccccc3C2c2ccccc21 (10 µM); label 0

Now for a further compound.
Ask: # bool: morphology score of CCCC(CCC)C(=O)NCC(N)=O [valrocemide] (10 µM) >= 0.008
Result: label 1

----------
- Test system: Vero E6 infected with SARS-CoV-2
- Test: morphology score (similarity to uninfected cells); higher = more like uninfected cells
- Condition label: 24 h
Property label: morphology score

Cc1c(C(N)=O)cc([N+](=O)[O-])cc1[N+](=O)[O-] [dinitolmide] (10 µM); -0.0186

Ask: Tell us which morphology score value is on record for N[C@H]1C[C@@H]1c1ccccc1 (racemic) [tranylcypromine] (10 µM)
Result: 0.0679
